tested on: genotype 1b (Con-1) HCV replicon; assay: HCV Replicon Luciferase Assay; format: cell-based; conditions: Hepatitis C virus, 72 h; Huh-7 genotype 1b replicon, Renilla luciferase, 3 days incubation; read-out: EC50 (uM) 1b
Task for the reader: assign each of the following molecules its reported log10 EC50.
Heads up: the numbers are on a log10 scale; they represent EC50 in µM.

## Task What measured log10 EC50 goes with CNC(=O)c1c(-c2ccc(F)cc2)oc2cc(N(CC#N)S(C)(=O)=O)c(-c3cccc(C(=O)OC)c3)cc12 [Compound 1001] ?
## Result -1.24

## Task Look up log10 EC50 for this molecule: C#CC(C)(CC)NC(=O)c1cccc(-c2cc3c(C(=O)NC)c(-c4ccc(F)cc4)oc3cc2N(CCCF)S(C)(=O)=O)c1 (centres unmarked) [Compound 4029]
## Result -2.23

## Task Recorded log10 EC50 of CNC(=O)c1c(-c2ccc(F)cc2)oc2cc(N(CCF)S(C)(=O)=O)c(-c3cccc(C(=O)N4CCN(c5cccnc5)CC4)c3)cc12 [Compound 3032] , please.
## Result 0.42

## Task Given CNC(=O)c1c(-c2ccc(F)cc2)oc2cc(N(CCC(F)(F)F)S(C)(=O)=O)c(-c3cccc(C(=O)NC(C)(C)C(F)(F)F)c3)cc12 [Compound 9004] , state its recorded log10 EC50.
## Result -1.97

## Task Give its log10 EC50 value. Item: CNC(=O)c1c(-c2ccc(F)cc2)oc2cc(N(CC3CC3)S(C)(=O)=O)c(-c3cccc(C(=O)O)c3)cc12 [Compound 2002]
## Result 0.88

Source of measurements: patent US10125111B2
